- study-system: UniProt:P51681
- Sequence (P51681 whole entry): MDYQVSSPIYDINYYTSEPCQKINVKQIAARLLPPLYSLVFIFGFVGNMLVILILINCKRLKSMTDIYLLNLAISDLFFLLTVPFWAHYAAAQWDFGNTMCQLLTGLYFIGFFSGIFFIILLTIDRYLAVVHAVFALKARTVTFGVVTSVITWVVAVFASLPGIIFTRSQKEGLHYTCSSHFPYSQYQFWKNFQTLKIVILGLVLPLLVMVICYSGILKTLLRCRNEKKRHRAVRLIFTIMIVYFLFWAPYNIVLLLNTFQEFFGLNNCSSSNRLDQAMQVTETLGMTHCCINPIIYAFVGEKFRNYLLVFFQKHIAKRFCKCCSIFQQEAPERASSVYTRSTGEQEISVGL
- experiment-notes: Inhibitory concentration for displacement of [125I]-MIP-1 alpha from recombinant human CC chemokine receptor 5 (CCR5) expressed in CHO cell
pIC50: −log10 of the molar value.
readout-type: pIC50

Consider the reported pIC50 for these compounds:
smiles-notation: CCn1nc(Cc2cccc(C#N)c2)cc1C1CCN(C[C@H]2CN([C@@H](C(=O)O)C(C)C)C[C@@H]2c2cccc(F)c2)CC1
study-system: UniProt:P51681
experimental-result: 8.77
//
smiles-notation: CCn1nc(Cc2cccc(F)c2)cc1C1CCN(C[C@H]2CN([C@@H](C(=O)O)C(C)C)C[C@@H]2c2cccc(F)c2)CC1
study-system: UniProt:P51681
experimental-result: 8.89
//
smiles-notation: CCn1nc(Cc2ccc(OC)cc2)cc1C1CCN(C[C@H]2CN([C@@H](C(=O)O)C3CCCCC3)C[C@@H]2c2cccc(F)c2)CC1
study-system: UniProt:P51681
experimental-result: 8.96

[I] CC[C@H](C)[C@H](C(=O)O)N1C[C@H](CN2CCC(c3cc(Cc4ccc(S(=O)(=O)c5ccccc5)cc4)nn3CC)CC2)[C@@H](c2cccc(F)c2)C1
[II] CC[C@@H](C)[C@H](C(=O)O)N1C[C@H](CN2CCC(c3cc(Cc4ccc(OC(C)(C)C)cc4)nn3CC)CC2)[C@@H](c2cccc(F)c2)C1
Looking only at measured pIC50, which entry is lower, I or II ? Please respond with the label that marks your chosen entry.
II
(II: 8.80, I: 9.22)
